- Read-out: Bcl-2 (BAX) gene, BAX (gene 581)
- assay_notes: LTEA_HepaRG_BAX: Life Technologies and Expression Analysis (LTEA) Assay for Bcl-2 (BAX) gene using HepaRG (AID 2283470)
- stated_conditions: mRNA level, 48 h; actives raise or lower the signal
Calls of active or inactive are those of the source. How the source made its calls: active means hit-call score of the fitted dose curve at least 0.9, where 1 is the maximum; inactive means score below 0.9.
measure: AC50

Use the examples below as a reference point.
compound: O=C(O)CCN(C1(C(=O)NO)CCCC1)S(=O)(=O)c1ccc(Oc2ccc(F)cc2)cc1
AC50: inactive

compound: O=P(OC(CCl)CCl)(OC(CCl)CCl)OC(CCl)CCl
AC50: 84.5 µM (active)

compound: CCCCCCCCO
AC50: inactive

compound: O=C(O)c1cccc(N(Cc2cccnc2)c2ccc(OC(F)F)c(OC(F)F)c2)c1
AC50: inactive

compound: CC(C)CC(C)(O)C#CC(C)(O)CC(C)C (centres undefined)
AC50: inactive

Q) Look up AC50 for this compound: "O=C1CCCCCN1"
A) inactive

Q) Try this compound too: "CCN(C(=O)c1cc(C)cc(OC[C@H](C)Nc2ccncc2)c1)C(C)C"
A) inactive

Q) Try this compound too: "CC(C)=CCCC(C)=CC=O"
A) inactive

* * *

Reported AC50 values for a set of compounds
- System: TTR (gene 7276)
- assay_notes: CCTE_GLTED_hTTR_0.125uM: CCTE's human Transthyretin (hTTR) Inhibition Assay, with 0.125uM TTR, Great Lakes Toxicology and Ecology Division (GLTED) Lab (AID 2284431);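 further: hits lower the fluorescence signal relative to DMSO baseline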
Activity calls are given as the source filed them. Rule for the calls: active = hit-call score of the fitted dose curve at least 0.9, where 1 is the maximum; inactive = score below 0.9.

Use the examples below as a reference point.
compound: O=C(OC[C@H]1O[C@@H](OC(=O)c2cc(O)c(O)c(OC(=O)c3cc(O)c(O)c(O)c3)c2)[C@H](OC(=O)c2cc(O)c(O)c(OC(=O)c3cc(O)c(O)c(O)c3)c2)[C@@H](OC(=O)c2cc(O)c(O)c(OC(=O)c3cc(O)c(O)c(O)c3)c2)[C@@H]1OC(=O)c1cc(O)c(O)c(OC(=O)c2cc(O)c(O)c(O)c2)c1)c1cc(O)c(O)c(OC(=O)c2cc(O)c(O)c(O)c2)c1
AC50: 0.252 µM (active)
--
compound: O=C(O)c1cc(N=Nc2ccc(S(=O)(=O)Nc3ccccn3)cc2)ccc1O
AC50: 0.422 µM (active)
--
compound: Cn1cnc([N+](=O)[O-])c1Sc1ncnc2nc[nH]c12
AC50: 25.1 µM (active)
--
compound: CC(C)=CCCC(C)CCO (stereo unspecified)
AC50: 45.8 µM (active)
--
compound: O=C(NS(=O)(=O)/C=C/c1ccccc1)c1ccc(F)cc1Cl
AC50: 13 µM (active)

Consider the additional compound presented here.
Q) Look up AC50 for this compound: "O=C(O)c1cccc(Oc2ccccc2)c1"
A) 0.542 µM (active)

* * *

- assay_notes: APR_HepG2_CellCycleArrest_24hr: Apredica 24-hour HepG2 Assay for Cell Cycle Arrest (AID 2282905);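 further: cell cycle arrest scored as ratio of 2N to 4N nuclear DNA content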
- stated_conditions: imaging, actives raise or lower the signal
The source made the active and inactive calls. Rule for the calls: active = hit-call score of the fitted dose curve at least 0.9, where 1 is the maximum; inactive = score below 0.9.
Returns: one label drawn from active, inactive

Some entries whose results are on file:
compound: Cn1c(=O)cc(Oc2ccc(F)cc2F)c2cnc(NCC(C)(C)O)nc21
category: inactive
//
compound: CC/C(=C\C(=N/O)C(N)=O)C(C)[N+](=O)[O-] (stereo not drawn)
category: inactive
//
compound: CCOC(=O)CC(CC(=O)OCC)(OC(C)=O)C(=O)OCC
category: inactive

Q) Check the results log: what was the call for CCOC(=O)c1ccc(C2CCC(NC[C@H](O)COc3ccc(O)c(NS(C)(=O)=O)c3)CC2)cc1 (stereo partly drawn) ?
A) inactive

Q) Try this compound too: "CC(=O)c1ccc2c(c1)[C@H](NC(=O)c1ccc(F)cc1)[C@@H](O)C(C)(C)O2"
A) inactive

Q) Try this compound too: "Cc1[nH]cnc1C[C@H]1CCc2c(C)c3ccccc3n2C1=O"
A) active

* * *

- tested_system: Heat shock factor protein 1 (Homo sapiens) (UniProt Q00613)
- Sequence (Q00613 whole entry, looked up): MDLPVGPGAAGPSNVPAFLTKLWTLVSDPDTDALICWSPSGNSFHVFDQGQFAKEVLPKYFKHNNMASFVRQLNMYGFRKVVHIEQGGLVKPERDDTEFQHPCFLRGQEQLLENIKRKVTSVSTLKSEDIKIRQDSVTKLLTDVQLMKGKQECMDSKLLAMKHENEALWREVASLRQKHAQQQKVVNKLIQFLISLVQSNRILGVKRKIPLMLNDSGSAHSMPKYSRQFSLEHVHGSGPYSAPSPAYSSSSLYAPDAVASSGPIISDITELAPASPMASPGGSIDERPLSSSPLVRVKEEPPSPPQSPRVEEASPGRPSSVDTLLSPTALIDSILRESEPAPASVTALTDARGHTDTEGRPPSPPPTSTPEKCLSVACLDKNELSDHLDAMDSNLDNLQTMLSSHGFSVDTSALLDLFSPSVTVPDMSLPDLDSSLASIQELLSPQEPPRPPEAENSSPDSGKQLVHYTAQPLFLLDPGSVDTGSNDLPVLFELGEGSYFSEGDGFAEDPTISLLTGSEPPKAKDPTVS
- assay_notes: ATG_HSE_CIS: Attagene CIS-FACTORIAL HepG2 Assay for human Heat Shock Transcription Factor 1 (HSE) (AID 2282953)
- stated_conditions: HepG2 HSE cis-reporter, Attagene RNA transcription; actives raise or lower the signal
Activity calls are given as the source filed them. Rule for the calls: active = hit-call score of the fitted dose curve at least 0.9, where 1 is the maximum; inactive = score below 0.9.
Returns: one label drawn from active, inactive

Some entries whose results are on file:
molecule: Oc1ccc2c(c1)-c1ccccc1C2
category: active

molecule: C=CCCCCCCCCC(=O)O
category: inactive

molecule: CCCCCCCCCCCCCCCO
category: inactive

molecule: Cc1ccc(O)cc1
category: inactive

molecule: O=C(O)c1cccc(N(Cc2cccnc2)c2ccc(OC(F)F)c(OC(F)F)c2)c1
category: inactive

molecule: CC[C@H](C)C(=O)O[C@H]1C[C@@H](C)C=C2C=C[C@H](C)[C@H](CC[C@@H]3C[C@@H](O)CC(=O)O3)[C@H]21
category: inactive

Now, please, on to the next molecule.
Q) Check the results log: what was the call for "O=C(CCCCCCCCc1cccnc1)N1CCC(C=C(c2ccccc2)c2ccccc2)CC1" ?
A) active

* * *

- assay_notes: APR_HepG2_MicrotubuleCSK_24hr: Apredica 24-hour HepG2 Assay for Microtubule CSK Stabilty (AID 2282909)
- stated_conditions: HepG2 microtubule cytoskeleton imaging, actives raise or lower the signal
The source made the active and inactive calls. How the source made its calls: active means hit-call score of the fitted dose curve at least 0.9, where 1 is the maximum; inactive means score below 0.9.
measure: outcome

Use the examples below as a reference point.
molecule: On1ccccc1=S
outcome: inactive
//
molecule: O=C1CCC(N2C(=O)c3ccccc3C2=O)C(=O)N1 (stereo not drawn)
outcome: inactive
//
molecule: NC(=O)NO
outcome: inactive
//
molecule: O=C(O)c1cccc(Oc2ccccc2)c1
outcome: inactive

Q) Look up outcome for this molecule: "CCNc1ccccc1"
A) inactive

Q) Try this molecule too: "Cc1ccc(S(=O)(=O)O)cc1C"
A) inactive

Q) Try this molecule too: "CC(C)=CCCC(C)=CC=O"
A) inactive

Q) Try this molecule too: CCCCC(CC)COC(=O)c1ccc(C(=O)OCC(CC)CCCC)cc1 (stereo not drawn)
A) inactive

* * *

- tested_system: guinea pig Serotonin, 5-Hydroxytryptamine Receptor 4 (5HT4), HTR4 (gene 100135548)
- assay_notes: NVS_GPCR_g5HT4: NovaScreen (NVS) G Protein-Coupled Receptor Assay for guinea pig Serotonin, 5-Hydroxytryptamine Receptor 4 (5HT4) (AID 2283294)
Records with an inconclusive call do not appear. Activity calls are given as the source filed them. Rule for the calls: active = hit-call score of the fitted dose curve at least 0.9, where 1 is the maximum; inconclusive = response in the unintended direction; inactive = score below 0.9.
measure: AC50

molecular_string: COc1cccc(-c2ccc(/C=C\CN3CCCCCC3)cc2Cl)c1
measure: AC50
observed_value: 12.1 µM (active)

molecular_string: CCCCCCc1ccc(O)cc1O
measure: AC50
observed_value: 36.6 µM (active)

molecular_string: Cc1[nH]cnc1C[C@H]1CCc2c(C)c3ccccc3n2C1=O
measure: AC50
observed_value: 6.64 µM (active)

molecular_string: CCn1nc(Cc2ccccc2)cc1C1CCN(C[C@H]2C[C@H](N(C)[C@@H](C(=O)O)C(C)C)C[C@@H]2c2cccc(F)c2)CC1
measure: AC50
observed_value: 25 µM (active)

molecular_string: CC[C@H]1CC[C@H](NCc2cc3c(cc2OC)[C@H]2C[C@H]2C(=O)N3C)[C@H](c2ccccc2)N1
measure: AC50
observed_value: 14.2 µM (active)

Q) Look up AC50 for this compound: "CCCN(C1CCN(C(=O)C2CCNCC2)CC1)[C@@H]1CCc2ccc(OC)cc2C1"
A) 8.99 µM (active)

* * *

- Read-out: Monokine induced gamma interferon (MIG), CXCL9 (gene 4283)
- assay_notes: BSK_SAg_MIG: BioMAP Diversity Plus: SAg Assay for Monokine induced gamma interferon (MIG) Biomarker Activity (AID 2283092)
- stated_conditions: primary human HUVEC with PBMC; actives raise or lower the signal
Activity calls are given as the source filed them. Rule for the calls: active = hit-call score of the fitted dose curve at least 0.9, where 1 is the maximum; inactive = score below 0.9.
Returns: one label drawn from YES = active, NO = inactive

Some entries whose results are on file:
molecule: CC(=O)OCCC(C)C
category: NO
--
molecule: CC(C)(O)c1coc(S(=O)(=O)NC(=O)Nc2c3c(cc4c2CCC4)CCC3)c1
category: NO
--
molecule: Nc1cccc(N)c1
category: NO

Q) Check the results log: what was the call for "CNCc1ccc(NC(=O)c2c[nH]c3c2C(=O)CCC3)cc1" ?
A) NO

Q) Try this molecule too: "CC(C)CCCCCCCOC(=O)CCCCC(=O)OCCCCCCCC(C)C"
A) NO

Q) Try this molecule too: "Cc1ccc(O)cc1"
A) NO

Q) Try this molecule too: "CCCCCCCCCCCCCCCO"
A) NO

* * *

- Read-out: DNA damage-inducible transcript 3 (DDIT3), DDIT3 (gene 1649)
- assay_notes: LTEA_HepaRG_DDIT3: Life Technologies and Expression Analysis (LTEA) Assay for DNA damage-inducible transcript 3 (DDIT3) using HepaRG (AID 2283488)
- stated_conditions: mRNA level, 48 h; actives raise or lower the signal
Activity calls are given as the source filed them. How the source made its calls: active means hit-call score of the fitted dose curve at least 0.9, where 1 is the maximum; inactive means score below 0.9.
Returns: one label drawn from active, inactive

molecule: CCC(C)(C)C(=O)O[C@H]1C[C@@H](C)C=C2C=C[C@H](C)[C@H](CC[C@@H]3C[C@@H](O)CC(=O)O3)[C@H]21
category: inactive
//
molecule: C1=CCCC=CCCC=CCC1
category: inactive
//
molecule: O=c1n(CC2CO2)c(=O)n(CC2CO2)c(=O)n1CC1CO1 (stereo unspecified)
category: inactive
//
molecule: O=C(O)CCN(C1(C(=O)NO)CCCC1)S(=O)(=O)c1ccc(Oc2ccc(F)cc2)cc1
category: inactive
//
molecule: Cn1c(=O)cc(Oc2ccc(F)cc2F)c2cnc(NCC(C)(C)O)nc21
category: inactive

Q) Check the results log: what was the call for "CCCCCCCCCCCCCCCO" ?
A) inactive
